Cited source: PubChem BioAssay (NCI)

Measured TGI of individual entries
Test system: A498 renal
Assay: NCI tumour cell line growth inhibition, 48 h
The response must be a number in µM with no trailing unit.

Examples with answers:
• C[n+]1c2ccccc2c2/c(=C\C#N)c3ccccc3n21 = 82.8
• COc1cc(O)c2c3c(ccnc13)-c1ccccc1N2 = 42.2

Read the next record carefully.
Qu. Using known records, supply TGI for `C[C@H](Nc1ccc2c(c1)OCCn1cc(N3C(=O)OC[C@H]3C(F)F)nc1-2)C(N)=O`
Ans. 10.2

* * *

Each entry below carries its reported TGI.
System: BT-549 breast
Assay: NCI tumour cell line growth inhibition, 48 h

* CC(C)=NNC1=NC(C)(C)P(=O)(NNc2ncccn2)S1 (stereo not drawn) | > 100 µM
* CC(CCc1ccccc1)NCC(O)n1c(/N=N/N(C)C)nc2c1c(=O)n(C)c(=O)n2C (stereo not drawn) | > 100 µM
* Cn1c(CCC2(C)Cc3ccccc3C(=O)O2)cc2ccccc2c1=O (stereo not drawn) | 44 µM

Qu. # return recorded TGI for input COc1ccc(CN(Cc2ccc(OC)cc2)C(=O)CC2(O)CCc3ccccc3C2)cc1 (stereo not drawn)
Ans. > 100 µM

Qu. Item CC(C)N(C(=O)C12C3(C(=O)OC(C)(C)C)C4C5(C#N)C3C1(C(=O)OC(C)(C)C)C5C42C(=O)OC(C)(C)C)C(C)C (stereo not drawn) : provide TGI
Ans. > 100 µM

Qu. Give a short answer stating reported TGI for CCn1cc(C2NC(=O)c3ccccc3N2)c2cccc(C)c21 (stereo not drawn) .
Ans. 17.6 µM

Qu. Fill in reported TGI for this entry: `Cc1ccc(NN=NCCCCN=NNc2ccc(C)cc2)cc1`
Ans. > 100 µM

Qu. Report measured TGI; entry is `Cc1cc(Cl)ccc1Nc1nc(C(F)(F)F)ccc1C(=O)N/N=C/c1cccc(O)c1`
Ans. 4.24 µM

* * *

Recorded measurements of GI50, one per entry
System: HOP-92 NSCLC
Experiment: NCI tumour cell line growth inhibition, 48 h

• COc1ccc2c(c1)c(-c1nonc1-c1cn(C)c3ccccc13)cn2C = 0.89 µM

Qu. Query GI50 for `CN(C)c1ccc2nc3ccc(=[N+](C)C)c([N+](=O)[O-])c-3sc2c1`
Ans. 2.09 µM

Qu. Give me measured GI50, please, for this molecule: `COc1ccccc1NC(=O)c1ccc(NC2=C(Cl)C(=O)N(Cc3ccccc3)C2=O)cc1`
Ans. 3.68 µM

Qu. Give the value of GI50 reported for the following: `CN1CCN(CCOc2ccc(-c3cnc4c(-c5cccc(F)c5F)cnn4c3)cc2)CC1`
Ans. 4.14 µM

Qu. Tell us which GI50 value is on record for COc1cccc(C2CC(=O)c3cc(N4CCCC4)ccc3N2)c1 (stereo unspecified)
Ans. > 100 µM

Qu. Tell us which GI50 value is on record for `COc1ccc2c(c1)C(=Nc1ccc(F)c(F)c1F)c1c-2c(Nc2ccc(F)c(F)c2F)nc2ccccc12`
Ans. 48 µM

* * *

Test system: OVCAR-8 ovarian
Test: NCI tumour cell line growth inhibition, 48 h
TGI listing for selected compounds.

Record excerpt, results attached:
- CN(C)C(=O)Oc1ccc[n+](C)c1: > 100 µM
- COC(=O)C1=C(C(=O)OC)C2(C)OC1C(=O)C21CC1 (stereo not drawn): 52.8 µM
- COCC1OC(OC2OCC3OC4(OCC(O)(C(C)OC)C5OCOC54)OC3C2OC)C(OC)C(O)C1OC1OC(C)C(OC)C(OC2OC(C)C3OC4(CC(O)C(OC5CC(OC6CC(C)([N+](=O)[O-])C(OC)C(C)O6)C(OC(=O)c6c(C)c(Cl)c(O)c(Cl)c6OC)C(C)O5)C(C)O4)OC3(C)C2O)C1O (stereo not drawn): > 100 µM
- COC1CC(OC2C(C)OC(OC3C(C)OC(OC4CCC5(C)C(=CCC6(O)C5CC(OC(=O)c5ccc(O)cc5)C5(C)C(O)(C(C)=O)CCC65O)C4)CC3OC)CC2OC)OC(C)C1O (stereo not drawn) (tested in a mixture with another compound): 82.5 µM
- CC(C)N(C(=O)C12C3(C(=O)OC(C)(C)C)C4C5(C#N)C3C1(C(=O)OC(C)(C)C)C5C42C(=O)OC(C)(C)C)C(C)C (stereo not drawn): > 100 µM

Qu. Please look at C#CCC(O)c1ccccc1C(O)CC#C (stereo not drawn) and tell me its recorded TGI on OVCAR-8 ovarian.
Ans. > 100 µM

Qu. Determine reported TGI for `O=C(NC(N1CCN(c2cc3c(cc2F)c(=O)c(C(=O)O)cn3C2CC2)CC1)(C(F)(F)F)C(F)(F)F)c1ccccc1` ; test system: OVCAR-8 ovarian.
Ans. > 100 µM

Qu. Enter measured TGI, system OVCAR-8 ovarian, for the compound shown: COC(=O)C1CC2c3c(c4ccccc4n3C)CC(C1=O)N2C (stereo not drawn)
Ans. > 100 µM
